biological target: butyrylcholinesterase (BChE) (Homo sapiens, UniProt P06276); assay: biochemical; assay type: biochemical
Sequence (P06276 29-602): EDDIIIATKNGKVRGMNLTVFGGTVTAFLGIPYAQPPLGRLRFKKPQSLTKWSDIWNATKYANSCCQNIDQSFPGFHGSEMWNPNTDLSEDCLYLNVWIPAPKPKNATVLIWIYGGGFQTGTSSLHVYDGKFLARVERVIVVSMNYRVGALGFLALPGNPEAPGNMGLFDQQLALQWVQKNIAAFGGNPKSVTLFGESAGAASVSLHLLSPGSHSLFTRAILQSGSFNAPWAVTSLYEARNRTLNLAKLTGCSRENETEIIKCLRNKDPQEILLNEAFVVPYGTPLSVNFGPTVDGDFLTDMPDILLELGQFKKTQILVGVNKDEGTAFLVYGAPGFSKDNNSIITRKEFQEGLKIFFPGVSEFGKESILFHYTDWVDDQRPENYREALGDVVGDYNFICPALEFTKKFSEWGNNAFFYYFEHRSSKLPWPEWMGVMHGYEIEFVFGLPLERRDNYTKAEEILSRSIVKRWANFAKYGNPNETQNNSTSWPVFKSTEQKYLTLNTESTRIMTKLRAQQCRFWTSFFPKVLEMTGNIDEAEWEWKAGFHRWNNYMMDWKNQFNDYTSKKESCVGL

| COMPOUND | MEASURED_ON | SI AChE/BChE |
| --- | --- | --- |
| O=C(/C=C/c1ccccc1)c1cc(I)c(Br)cc1O [Compound 2i] | butyrylcholinesterase (BChE) (Homo sapiens, UniProt P06276) | 4.12 |
| O=C(/C=C/c1ccc(F)cc1)c1cc(I)c(Br)cc1O [Compound 2j] | butyrylcholinesterase (BChE) (Homo sapiens, UniProt P06276) | 1.92 |
| COc1ccc(/C=C/C(=O)c2cc(I)c(Br)cc2O)cc1 [Compound 2l] | butyrylcholinesterase (BChE) (Homo sapiens, UniProt P06276) | 0.69 |
| O=c1c(O)c(-c2ccc(F)cc2)oc2cc(Br)c(I)cc12 [Compound 3j] | butyrylcholinesterase (BChE) (Homo sapiens, UniProt P06276) | 0.41 |
